Values compiled from PubChem BioAssay (EPA / NIEHS).

ASSAY_SUMMARY: CCTE_Simmons_MITO_inhib_resp_rate: CCTE's HepG2 Seahorse XF Respirometric Screening Assay at Inhibited Respiratory State [full ETC block], Simmons Lab (AID 2284006)
PROTOCOL_CONDITIONS: actives raise or lower the signal
Active and inactive are the calls of the source. Rule for the calls: active = hit-call score of the fitted dose curve at least 0.9, where 1 is the maximum; inactive = score below 0.9.
Possible outcomes: active, inactive

molecule=CCOc1cccc(-n2cc(C(=O)N3CCN(c4cc(C(=O)O)c5ccccc5c4)CC3)nc2-c2ccc(C)cc2)c1 classification=inactive
molecule=CCCCCCc1ccc(O)cc1O classification=inactive
molecule=CCn1nc(Cc2ccccc2)cc1C1CCN(C[C@H]2C[C@H](N(C)[C@@H](C(=O)O)C(C)C)C[C@@H]2c2cccc(F)c2)CC1 classification=inactive
molecule=CC(C)=CCCC(C)=CC=O classification=inactive
molecule=COc1ccc(/C=C/S(=O)(=O)NC(=O)c2ccc(C)cc2Cl)cc1 classification=inactive
molecule=CC(C)=CCC/C(C)=C/CO classification=inactive
molecule=Cn1c(=O)cc(Oc2ccc(F)cc2F)c2cnc(NCC(C)(C)O)nc21 classification=inactive
molecule=COc1ccc2sc(C(=O)Nc3nnn[nH]3)c(OC(C)C)c2c1 classification=inactive
molecule="Fc1ccccc1[C@@H](F)COC1CCC(Nc2ncnc3[nH]ncc23)CC1 (stereo partly specified)" classification=inactive
molecule=O=C(O)c1cccc(N(Cc2cccnc2)c2ccc(OC(F)F)c(OC(F)F)c2)c1 classification=inactive
molecule=Cc1ccc(N)cc1O classification=active
molecule="O=c1[nH]c2ccc(S(=O)CCN3CCC(Cc4ccc(F)cc4)CC3)cc2o1 (stereo unspecified)" classification=inactive
molecule=COc1cccc(-c2ccc(/C=C\CN3CCCCCC3)cc2Cl)c1 classification=inactive
molecule=CC(C)c1cccc(C(C)C)c1N1C(=O)c2ccc(O)cc2C1=O classification=inactive
molecule="CC(C)CC(C)(O)C#CC(C)(O)CC(C)C (stereo unspecified)" classification=inactive
molecule="CCOC(=O)COc1ccc2c(c1)CC(NCC(O)c1cccc(Cl)c1)CC2 (stereo unspecified)" classification=inactive

----------
ASSAY_SUMMARY: ATG_M_61_CIS: Attagene CIS-FACTORIAL HepG2 Assay for M61 Transcription Factor (Internal Marker) (AID 2282937)
PROTOCOL_CONDITIONS: HepG2 Attagene CIS-FACTORIAL M61 internal marker reporter; actives raise or lower the signal
Active and inactive are the calls of the source. How the source made its calls: active means hit-call score of the fitted dose curve at least 0.9, where 1 is the maximum; inactive means score below 0.9.
Labels: t = active, f = inactive

compound="CCCCC(CC)COC(=O)c1ccc(C(=O)OCC(CC)CCCC)cc1 (stereo not given)" classification=f
compound=O=C(CCCCCCCCc1cccnc1)N1CCC(C=C(c2ccccc2)c2ccccc2)CC1 classification=t
compound="Fc1ccccc1[C@@H](F)COC1CCC(Nc2ncnc3[nH]ncc23)CC1 (stereo not given in full)" classification=f
compound=CCn1nc(Cc2ccccc2)cc1C1CCN(C[C@H]2C[C@H](N(C)[C@@H](C(=O)O)C(C)C)C[C@@H]2c2cccc(F)c2)CC1 classification=f
compound=CCOC(=O)CC(CC(=O)OCC)(OC(C)=O)C(=O)OCC classification=f

----------
ASSAYED_SYSTEM: X-box-binding protein 1 (Homo sapiens)
ASSAY_SUMMARY: ATG_Xbp1_CIS: Attagene CIS-FACTORIAL HepG2 Assay for human X-box Binding Protein 1 (XBP1) (AID 2282972)
PROTOCOL_CONDITIONS: HepG2 XBP1 cis-element reporter, Attagene multiplex; actives raise or lower the signal
Active and inactive are the calls of the source. Rule for the calls: active = hit-call score of the fitted dose curve at least 0.9, where 1 is the maximum; inactive = score below 0.9.
Outcomes: TRUE = active, FALSE = inactive

compound=CC(=O)OCCC(C)C classification=FALSE
compound=COc1ccc2sc(C(=O)Nc3nnn[nH]3)c(OC(C)C)c2c1 classification=TRUE
compound=Cc1ccc(N)cc1O classification=FALSE
compound=CCNc1ccccc1 classification=FALSE
compound=COc1cccc(-c2ccc(/C=C\CN3CCCCCC3)cc2Cl)c1 classification=FALSE
compound="CCOC(=O)COc1ccc2c(c1)CC(NCC(O)c1cccc(Cl)c1)CC2 (centres undefined)" classification=FALSE
compound=CC(C)=CCCC(C)=CC=O classification=FALSE
compound=CC(C)CCCCCCCOC(=O)CCCCC(=O)OCCCCCCCC(C)C classification=FALSE
compound=Clc1nc(Cl)c(Cl)c(Cl)c1Cl classification=FALSE
compound="O=C1OC(=O)C2C3C=CC(C3)C12 (centres undefined)" classification=FALSE
compound=O=C1CCCCCN1 classification=FALSE
compound=Oc1ccc2c(c1)-c1ccccc1C2 classification=TRUE
compound=NC(=O)NO classification=FALSE
compound=CC[C@H]1CC[C@H](NCc2cc3c(cc2OC)[C@H]2C[C@H]2C(=O)N3C)[C@H](c2ccccc2)N1 classification=TRUE
compound=Cc1ccc(C)c(O)c1 classification=FALSE
compound=Cc1[nH]cnc1C[C@H]1CCc2c(C)c3ccccc3n2C1=O classification=TRUE
compound="COc1ccc(-n2nc(C(F)F)cc2-c2ccc(S(C)=O)cc2)cc1 (centres undefined)" classification=FALSE
compound=Cc1ccc(S(=O)(=O)O)cc1C classification=FALSE
compound=COC(=O)c1c(Cl)c(Cl)c(C(=O)OC)c(Cl)c1Cl classification=FALSE
compound="CC(C)=CCCC(C)CCO (centres undefined)" classification=FALSE
compound=CCCN(C1CCN(C(=O)C2CCNCC2)CC1)[C@@H]1CCc2ccc(OC)cc2C1 classification=TRUE
compound=CC(C)c1cccc(C(C)C)c1N1C(=O)c2ccc(O)cc2C1=O classification=TRUE
compound=C1N2CN3CN1CN(C2)C3 classification=FALSE
compound=COCCOCCOCCOC classification=FALSE
compound=Cc1ccc(O)cc1 classification=FALSE
compound=Cn1cnc([N+](=O)[O-])c1Sc1ncnc2nc[nH]c12 classification=FALSE
compound=CCOCCO classification=FALSE
compound=CCCCCCCCCCCCc1ccccc1 classification=FALSE
compound=CN(C)c1ccc(Cc2ccc(N(C)C)cc2)cc1 classification=FALSE

----------
ASSAY_SUMMARY: ATG_NF_kB_CIS: Attagene CIS-FACTORIAL HepG2 Assay for human Nuclear Factor Kappa B (NF-kB) (AID 2282991)
PROTOCOL_CONDITIONS: HepG2 Attagene cis-factorial NF-kB reporter mRNA; actives raise or lower the signal
Activity calls are given as the source filed them. The calls were made as follows: active = hit-call score of the fitted dose curve at least 0.9, where 1 is the maximum; inactive = score below 0.9.
Outcome codes: active, inactive

compound=C[C@](N)(Cc1ccc(O)c(O)c1)C(=O)O classification=inactive
compound="CC(C)=CCCC(C)CCO (stereo unspecified)" classification=inactive
compound=COc1cccc(-c2ccc(/C=C\CN3CCCCCC3)cc2Cl)c1 classification=inactive
compound=CCCCCCCCCCCCCCCO classification=inactive
compound=CN(C)c1ccc(Cc2ccc(N(C)C)cc2)cc1 classification=active
compound=Nc1ccc(Nc2ccccc2)cc1 classification=inactive
compound=COC(=O)c1c(Cl)c(Cl)c(C(=O)OC)c(Cl)c1Cl classification=inactive
compound=Nc1nc2ncc(CNc3ccc(C(=O)N[C@@H](CCC(=O)O)C(=O)O)cc3)nc2c(=O)[nH]1 classification=inactive
compound=O=C(O)CCN(C1(C(=O)NO)CCCC1)S(=O)(=O)c1ccc(Oc2ccc(F)cc2)cc1 classification=inactive
compound=On1ccccc1=S classification=active
compound=CC[C@H]1CC[C@H](NCc2cc3c(cc2OC)[C@H]2C[C@H]2C(=O)N3C)[C@H](c2ccccc2)N1 classification=active

----------
Read-out: Human Leukocyte Antigen - DR isotype (HLADR), HLA-DRA (gene 3122)
ASSAY_SUMMARY: BSK_BE3C_HLADR: BioMAP Diversity Plus: BE3C Assay for Human Leukocyte Antigen - DR isotype (HLADR) Biomarker Activity (AID 2283032)
PROTOCOL_CONDITIONS: primary human bronchial epithelial cells; actives raise or lower the signal
Calls of active or inactive are those of the source. How the source made its calls: active means hit-call score of the fitted dose curve at least 0.9, where 1 is the maximum; inactive means score below 0.9.
Labels: 1 = active, 0 = inactive

compound=CC(=O)OC[C@H]1O[C@@](COC(C)=O)(O[C@H]2O[C@H](COC(C)=O)[C@@H](OC(C)=O)[C@H](OC(C)=O)[C@H]2OC(C)=O)[C@@H](OC(C)=O)[C@@H]1OC(C)=O classification=0
compound=Cc1c(-c2cccnc2)c2ccccc2n1CCCCC(=O)O classification=0
compound=C=CCCCCCCCCC(=O)O classification=0
compound="O=C(O)CC(O)C(=O)O (stereo not given)" classification=0
compound=Cn1cnc([N+](=O)[O-])c1Sc1ncnc2nc[nH]c12 classification=0
compound=O=C(O)CCN(C1(C(=O)NO)CCCC1)S(=O)(=O)c1ccc(Oc2ccc(F)cc2)cc1 classification=0
compound=CCNc1ccccc1 classification=0
compound=O=P(OC(CCl)CCl)(OC(CCl)CCl)OC(CCl)CCl classification=0
compound=CCc1cc(SCc2sc(-c3ccc(C(F)(F)F)cc3)nc2CN2CCN(c3ccc(OC)cc3)CC2)ccc1OCC(=O)O classification=1
compound=O=C(OC[C@H]1O[C@@H](OC(=O)c2cc(O)c(O)c(OC(=O)c3cc(O)c(O)c(O)c3)c2)[C@H](OC(=O)c2cc(O)c(O)c(OC(=O)c3cc(O)c(O)c(O)c3)c2)[C@@H](OC(=O)c2cc(O)c(O)c(OC(=O)c3cc(O)c(O)c(O)c3)c2)[C@@H]1OC(=O)c1cc(O)c(O)c(OC(=O)c2cc(O)c(O)c(O)c2)c1)c1cc(O)c(O)c(OC(=O)c2cc(O)c(O)c(O)c2)c1 classification=1
compound=Cc1ccc(C)c(O)c1 classification=0
compound=O=C(O)c1cccc(Oc2ccccc2)c1 classification=0
compound=Cc1ccc(S(=O)(=O)O)cc1C classification=0
compound=Cn1c(=O)cc(Oc2ccc(F)cc2F)c2cnc(NCC(C)(C)O)nc21 classification=0
compound="O=C1CCC(N2C(=O)c3ccccc3C2=O)C(=O)N1 (stereo not given)" classification=0
compound=CC(C)c1cccc(C(C)C)c1N1C(=O)c2ccc(O)cc2C1=O classification=1
compound=CCCCCCCCCCCCc1ccccc1 classification=0
compound="CNS(=O)(=O)c1cc(C(=O)N2CCC(CCN3C4CCC3CC(n3c(C)nc5ccccc53)C4)(c3cccc(F)c3)CC2)c(Cl)cc1F (stereo not given)" classification=0
compound="CC(O)CN(CCN(CC(C)O)CC(C)O)CC(C)O (stereo not given)" classification=0
compound="CC(C)CC(C)(O)C#CC(C)(O)CC(C)C (stereo not given)" classification=0
